The measured values listed here are drawn from patent US20090069319A1.

Listed here: items and their measured fold induction at 2 µM.
Experiment: Functional Dkk1-LRP5-TCF-Luciferase Assay in U2OS Cells (table columns: A=MAX FOLD Induction/DMSO CONTROL; B=fold induction @ 2.0 uM; C=fold induction @ 20.0 uM)
Assay type: cell-based, Human
Conditions: Homo sapiens, U2OS; 2.0 uM compound
MEASUREMENT NAME: fold induction at 2 µM

INSERT INTO results (mol, data_value) VALUES
  ('c1c[nH]c(-c2nc3cc(-c4ccc5ccccc5c4)cnc3n2C2CCNCC2)c1', 1.01),
  ('Oc1ccccc1-c1nc2c(-c3ccc4ccccc4c3)ccnc2n1C1CCNCC1', 1.35),
  ('c1coc(-c2nc3cc(-c4ccc5ccccc5c4)cnc3n2C2CCNCC2)c1', 1.27),
  ('Fc1ccc(-c2nc3c(-c4ccc5ccccc5c4)ccnc3n2C2CCNCC2)cc1', 2.07),
  ('c1ccc2cc(-c3ccnc4c3ncn4[C@@H]3CCCNC3)ccc2c1', 3.48);
